The entries below come with measured pIC50 values attached.
protocol.text: Inhibition of LPS-induced TNF release in human PBMC cells
Type: functional, cell-based
pIC50: −log10 of the molar value.
endpoint: pIC50

molecule: CCNc1cc(F)cc2c1NC(=O)C2(C)N1CCCCC1 (racemic)
endpoint: pIC50
relational.operator: =
observed.measurement: 4.31
--
molecule: CCNc1cc(F)cc2c1NC(=O)C2(CC)N1CCC[C@@H](NC(=O)C2CC3(C2)CN(C#N)C3)C1 (mixture of isomers)
endpoint: pIC50
relational.operator: =
observed.measurement: 6.05
--
molecule: CCNc1cc(F)cc2c1[nH]c(=O)n2-c1c(C)cc(Oc2cccc(C(=O)O)c2)cc1Cl
endpoint: pIC50
relational.operator: =
observed.measurement: 4.15
--
molecule: CCNc1cc(F)cc2c1NC(=O)C2(C)N1CCC[C@@H](Nc2ccc(C#N)nc2)C1 (mixture of isomers)
endpoint: pIC50
relational.operator: =
observed.measurement: 5.35
--
molecule: CCNc1cc(F)cc2c1NC(=O)C2(C)N1CCC[C@@H](Nc2ccc(C(=O)O)c(Cl)c2)C1 (stereo partly specified)
endpoint: pIC50
relational.operator: <
observed.measurement: 4.00
--
molecule: CCNc1cc(F)cc2c1[nH]c(=O)n2-c1ccc(Oc2cccc(S(=O)(=O)F)c2)cc1
endpoint: pIC50
relational.operator: =
observed.measurement: 4.61
